- Assay notes: Acute toxicity LD50 p.o. in mice
- Condition label: mouse, in vivo, po, read-out: LD₅₀
Parameter: LD50 (mg/kg)
# value in mg/kg; strip the unit string

Item: CN1c2ccccc2C(O)c2sccc2S1(=O)=O (stereo not shown) [example 1] | LD50: 1250
